Exercise: for every item that follows, state its recorded normalized growth.
Test: chemical genetic growth profiling, strain panel (AID 1159580);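 also: tested at 20 µM; growth read once vehicle control cultures reached saturation at 30 °C; 1 = growth at the plate median or of vehicle wells; lower values mean less growth of the strain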
Details: S. cerevisiae deletion strains, growth OD, locus YDL108W, strain KIN28, hits give low values
The campaign covered roughly 5,500 compounds. About 2,000 (36%) were called active. Not shown: some 18% with an inconclusive outcome. The list shows a part of the results.
# answer = number (no unit)

query: Return value of normalized growth for input CCC(C)Cn1c(Sc2ncc([N+](=O)[O-])s2)n[nH]c1=O (configuration not stated) , no commentary.
result: 0.878

query: Return value of normalized growth for input `O=C1c2ccccc2O[C@@H](c2ccccc2)[C@@H]1NC1CCCCC1` , no commentary.
result: 0.924

query: Return value of normalized growth for input `C/C(=N/Nc1nc(C(C)(C)C)cs1)c1ccc(Cl)c(Cl)c1` , no commentary.
result: 0.994

query: Return value of normalized growth for input CCC(C)COC(=O)/C=C/c1ccc(N=Cc2ccc(OC)cc2)cc1 (configuration not stated) , no commentary.
result: 0.965

query: Return value of normalized growth for input `O=C1c2ccccc2O[C@@H](c2ccccc2)[C@@H]1NCc1ccccc1` , no commentary.
result: 0.929

query: Return value of normalized growth for input `N#CCCCCOc1ccc2c(=O)cc(-c3ccccc3)oc2c1` , no commentary.
result: 0.977

query: Return value of normalized growth for input `N#Cc1c(Br)cnn1Cc1cc(C(F)(F)F)cc(C(F)(F)F)c1` , no commentary.
result: 0.997

query: Return value of normalized growth for input `CC(C)c1ccc(-c2cc(=O)c3ccccc3o2)cc1` , no commentary.
result: 0.934

query: Return value of normalized growth for input `CC(C)(C)c1csc(NC(=O)c2ccc(Cl)cc2Cl)n1` , no commentary.
result: 0.98

query: Return value of normalized growth for input `O=C1Nc2ccccc2/C1=N/N=C\c1ccccc1Cl` , no commentary.
result: 0.969

query: Return value of normalized growth for input `CC(C)(C)c1cc2nc(C(F)(F)F)cc(NNC(=O)c3ccc(Cl)cc3)n2n1` , no commentary.
result: 0.981

query: Return value of normalized growth for input `O=C1Nc2ccccc2/C1=N/N=C\c1cc(Br)cc(Br)c1O` , no commentary.
result: 0.957

query: Return value of normalized growth for input `CN(C(=O)N(C)c1ccc(Cl)cc1C(=O)c1ccccc1Cl)c1ccc(Cl)cc1C(=O)c1ccccc1Cl` , no commentary.
result: 0.831

query: Return value of normalized growth for input `CCn1nc(C)cc1-c1nnc(Sc2ncc([N+](=O)[O-])s2)n1C` , no commentary.
result: 0.945

query: Return value of normalized growth for input `CCCc1cnc(N2CCN(CC(=O)N(c3ccccc3)C3CCCCC3)CC2)nc1` , no commentary.
result: 0.99

query: Return value of normalized growth for input `Clc1ccc(-c2csc(Nc3ccccc3)n2)s1` , no commentary.
result: 0.926

query: Return value of normalized growth for input `Cc1ccc2c(c1)CCCN2CC(=O)N(c1ccccc1)C1CCCCC1` , no commentary.
result: 0.986

All values here come from PubChem BioAssay AID1159580.
